# System: cyIL1RAP
# assay remarks: Kinetics of IL1RAP mAbs by Octet, cynomolgus IL1RAP
# Type: binding
The molecules listed here are annotated with their cyIL1RAP kon(1/Ms).
Phrase the answer as number then unit, nothing more needed.

molecule	cyIL1RAP kon(1/Ms)
74804_18L05A: anti-IL1RAP mAb; VH SEQ ID NO:4, VL SEQ ID NO:21, κ light chain (antibody, V domains shown, 74804_18L05A VH; 74804_18L05A VL) VH: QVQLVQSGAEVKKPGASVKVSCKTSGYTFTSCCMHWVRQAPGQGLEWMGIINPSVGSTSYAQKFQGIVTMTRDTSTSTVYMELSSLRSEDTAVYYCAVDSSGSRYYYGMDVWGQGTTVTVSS VL: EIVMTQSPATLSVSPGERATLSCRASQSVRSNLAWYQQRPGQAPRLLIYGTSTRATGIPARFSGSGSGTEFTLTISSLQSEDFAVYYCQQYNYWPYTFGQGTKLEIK	221100 M⁻¹ s⁻¹
74804_07K10A: anti-IL1RAP mAb; VH SEQ ID NO:5, VL SEQ ID NO:22, κ light chain (antibody, V domains shown, 74804_07K10A VH; 74804_07K10A VL, 74804_29D13A VL and 74804_43F04A VL) VH: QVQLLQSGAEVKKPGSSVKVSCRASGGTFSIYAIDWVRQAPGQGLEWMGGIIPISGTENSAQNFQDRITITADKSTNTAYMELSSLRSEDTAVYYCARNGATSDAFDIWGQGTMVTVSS VL: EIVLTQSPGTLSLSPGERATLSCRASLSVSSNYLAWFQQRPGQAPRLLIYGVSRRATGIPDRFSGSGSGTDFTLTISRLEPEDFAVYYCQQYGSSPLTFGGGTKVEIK	376800 M⁻¹ s⁻¹
74804_45C18A: anti-IL1RAP mAb; VH SEQ ID NO:11, VL SEQ ID NO:27, κ light chain (antibody, V domains shown, 74804_45C18A VH; 74804_45C18A VL) VH: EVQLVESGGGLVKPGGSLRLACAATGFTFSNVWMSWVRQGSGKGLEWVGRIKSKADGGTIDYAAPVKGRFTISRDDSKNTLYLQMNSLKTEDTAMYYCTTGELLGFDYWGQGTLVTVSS VL: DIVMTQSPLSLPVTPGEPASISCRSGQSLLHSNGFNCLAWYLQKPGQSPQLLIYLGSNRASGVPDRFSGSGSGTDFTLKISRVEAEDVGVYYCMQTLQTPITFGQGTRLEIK	337500 M⁻¹ s⁻¹

Next:
Give its cyIL1RAP kon(1/Ms) value. Item: 74804_27I24A: anti-IL1RAP mAb; VH SEQ ID NO:13, VL SEQ ID NO:29, λ light chain (antibody, V domains shown, 74804_27I24A VH; 74804_27I24A VL) VH: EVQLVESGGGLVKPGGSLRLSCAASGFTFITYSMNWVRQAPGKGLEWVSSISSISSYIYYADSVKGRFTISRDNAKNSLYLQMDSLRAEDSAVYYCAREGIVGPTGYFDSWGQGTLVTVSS VL: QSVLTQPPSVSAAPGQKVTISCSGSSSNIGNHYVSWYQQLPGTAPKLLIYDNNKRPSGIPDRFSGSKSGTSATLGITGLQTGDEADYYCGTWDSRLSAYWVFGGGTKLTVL
379500 M⁻¹ s⁻¹
